- tested on: DNMT3A_CD (catalytic domain of DNMT3A) (Homo sapiens)
- Construct: The catalytic domain of DNMT3A (residues 634 -912) were used for all experiments
- Sequence (Q9Y6K1 634-912): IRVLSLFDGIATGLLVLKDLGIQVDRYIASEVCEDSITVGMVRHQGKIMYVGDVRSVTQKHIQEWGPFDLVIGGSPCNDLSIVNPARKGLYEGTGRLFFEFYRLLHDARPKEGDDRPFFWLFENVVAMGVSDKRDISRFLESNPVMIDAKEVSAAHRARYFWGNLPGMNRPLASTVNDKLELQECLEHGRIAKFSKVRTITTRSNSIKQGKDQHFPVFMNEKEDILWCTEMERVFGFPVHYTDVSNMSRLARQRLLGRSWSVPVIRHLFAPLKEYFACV
- method summary: In vitro methylation assay, IC50 determination ([3H]-SAM, poly dI-dC)
- test settings: 150 nM DNMT3A, 10 uM SAM, 10 uM poly dI-dC; 1 hour preincubation; Hill slope constrained to -2
measured quantity: IC50 (µM)
# unit: µM | format: bare number

INPUT: // map CN1N=C(c2cccc(OCCCCOc3ccc(-c4nn[nH]n4)cc3)c2)[C@H]2CC=CC[C@H]2C1=O [Compound 5] to recorded IC50 (system: DNMT3A_CD (catalytic domain of DNMT3A) (Homo sapiens))
OUTPUT: 41

INPUT: // map O=C1[C@@H]2CC=CC[C@@H]2C(c2cccc(OCCCCOc3ccc(-c4nn[nH]n4)cc3)c2)=NN1Cc1ccc(F)c(F)c1 [Compound 7] to recorded IC50 (system: DNMT3A_CD (catalytic domain of DNMT3A) (Homo sapiens))
OUTPUT: 18

INPUT: // map O=C1[C@@H]2CC=CC[C@@H]2C(c2cccc(OC/C=C/COc3ccc(-c4nn[nH]n4)cc3)c2)=NN1C1CCCCCC1 [Compound 11] to recorded IC50 (system: DNMT3A_CD (catalytic domain of DNMT3A) (Homo sapiens))
OUTPUT: 13

INPUT: // map O=C1[C@@H]2CC=CC[C@@H]2C(c2cccc(OCCCCCOc3ccc(-c4nn[nH]n4)cc3)c2)=NN1C1CCCCCC1 [Compound 9] to recorded IC50 (system: DNMT3A_CD (catalytic domain of DNMT3A) (Homo sapiens))
OUTPUT: 9

INPUT: // map O=C(COc1cccc(C2=NN(C3CCCCCC3)C(=O)[C@@H]3CC=CC[C@H]23)c1)Nc1ccc(-c2nn[nH]n2)cc1 [Compound 12] to recorded IC50 (system: DNMT3A_CD (catalytic domain of DNMT3A) (Homo sapiens))
OUTPUT: 38

INPUT: // map O=C1[C@@H]2CC=CC[C@@H]2C(c2cccc(OCCCCOc3ccc(-c4nn[nH]n4)cc3)c2)=NN1C1CCCCCC1 [Compound 4] to recorded IC50 (system: DNMT3A_CD (catalytic domain of DNMT3A) (Homo sapiens))
OUTPUT: 10

INPUT: // map O=C1[C@@H]2CC=CC[C@@H]2C(c2cccc(OCCCCOc3ccc(-c4nn[nH]n4)cc3)c2)=NN1Cc1ccccc1 [Compound 6] to recorded IC50 (system: DNMT3A_CD (catalytic domain of DNMT3A) (Homo sapiens))
OUTPUT: 13

INPUT: // map COc1ccc(C2=NN(C3CCCCCC3)C(=O)[C@@H]3CC=CC[C@H]23)cc1OCCCCOc1ccc(-c2nnn[nH]2)cc1 [Compound 1a] to recorded IC50 (system: DNMT3A_CD (catalytic domain of DNMT3A) (Homo sapiens))
OUTPUT: 14

INPUT: // map O=C1[C@@H]2CC=CC[C@@H]2C(c2cccc(OC/C=C\COc3ccc(-c4nn[nH]n4)cc3)c2)=NN1C1CCCCCC1 [Compound 10] to recorded IC50 (system: DNMT3A_CD (catalytic domain of DNMT3A) (Homo sapiens))
OUTPUT: 11

INPUT: // map O=C1[C@@H]2CC=CC[C@@H]2C(c2cccc(OCCCOc3ccc(-c4nn[nH]n4)cc3)c2)=NN1C1CCCCCC1 [Compound 8] to recorded IC50 (system: DNMT3A_CD (catalytic domain of DNMT3A) (Homo sapiens))
OUTPUT: 11
